- System: ALPK1-dependent NFκB reporter gene activation in HEK293 cells stably expressing an NF-kB reporter (G9 cells)
- assay_name: NFκB gene reporter alkaline phosphatase assay
- Format: cell-based
- assay_setup: Homo sapiens, HEK293; read-out: NFkB assay IC50
recorded_metric: pIC50
pIC50 field: float, defined as -log10 of concentration (mol/L).

Form field: reported pIC50 of CC(NC(=O)Nc1nc(C(C)(C)c2ccc(Br)cc2)cs1)c1cc(F)c(N2CCNCC2)c(F)c1 (centres unmarked) [Example A003] 5.92

Using the record for CC(C)(c1ccc(Br)cc1)c1csc(NC(=O)NCCCN2CCOCC2)n1 [Example A127] , report its pIC50. 6.03

If you can, please state the reported pIC50 value of COc1ccc(C(C)(C)c2csc(NC(=O)NCc3cnc(N4CCC(N(C)C)C4)nc3)n2)cc1 (centres unmarked) [Example A012] . 5.66

Could you tell me which pIC50 is on file for COCCCNC(=O)Nc1nc(C(C)(C)c2ccc(OC)cc2)cs1 [Example A111] ? 5.91

# lookup: pIC50 of C#CC(CC)(c1ccc(Br)cc1)c1csc(NC(=O)NCCO)n1 (centres unmarked) [Example A157] 5.87

Give its pIC50 value. Item: C#C[C@](C)(c1ccc(OC)cc1)c1csc(NC(=O)NCCS(N)(=O)=O)n1 [Example A310] 6.01

Item O=C(Nc1nc(C2(c3ccc(Br)cc3)CCCC2)cs1)N1CC(c2ccc(N3CCNCC3)c(F)c2)C1 [Example A236] has what recorded pIC50? 5.35

# pIC50 lookup, item COc1ccc(C(C)(C)c2csc(NC(=O)NCc3ccc(C(=O)NCCN)cc3)n2)cc1 [Example A218] 5.17
